Measured values drawn from patent US20260193366A1 for this set.

Target of assay: T1, hIL-4Rα on cells (human, UniProt P24394 26-825)
T1 sequence: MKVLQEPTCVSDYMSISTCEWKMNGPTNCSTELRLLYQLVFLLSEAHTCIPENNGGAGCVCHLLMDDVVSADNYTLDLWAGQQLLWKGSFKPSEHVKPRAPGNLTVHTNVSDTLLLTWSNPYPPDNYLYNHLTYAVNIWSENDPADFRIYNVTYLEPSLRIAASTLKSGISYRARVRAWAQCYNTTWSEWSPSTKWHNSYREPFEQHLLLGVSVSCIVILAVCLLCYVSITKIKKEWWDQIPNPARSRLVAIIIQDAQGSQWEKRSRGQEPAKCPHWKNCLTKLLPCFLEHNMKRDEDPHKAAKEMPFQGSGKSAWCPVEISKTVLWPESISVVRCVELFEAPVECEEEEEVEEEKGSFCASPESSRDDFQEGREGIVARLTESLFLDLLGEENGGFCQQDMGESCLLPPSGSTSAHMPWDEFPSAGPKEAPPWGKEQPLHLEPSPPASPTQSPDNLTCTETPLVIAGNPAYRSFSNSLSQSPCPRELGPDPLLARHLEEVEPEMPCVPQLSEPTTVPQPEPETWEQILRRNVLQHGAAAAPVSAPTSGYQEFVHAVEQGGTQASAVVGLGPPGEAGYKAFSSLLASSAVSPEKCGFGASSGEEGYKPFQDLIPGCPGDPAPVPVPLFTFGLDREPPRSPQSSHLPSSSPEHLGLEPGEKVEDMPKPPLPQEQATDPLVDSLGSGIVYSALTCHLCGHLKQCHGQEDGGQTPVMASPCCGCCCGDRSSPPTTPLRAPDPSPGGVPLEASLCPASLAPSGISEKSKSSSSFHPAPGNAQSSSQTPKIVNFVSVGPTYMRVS
Method summary: cell-based or functional assay
Endpoint label: Relative Inhibition of IL-13 induced TF-1 Proliferation IC50

For orientation, consider the following solved cases.
| Binder | Endpoint result |
| --- | --- |
| Construct 6 (mAb415) (antibody, IgG4, V domains shown, VH/VL only) VH: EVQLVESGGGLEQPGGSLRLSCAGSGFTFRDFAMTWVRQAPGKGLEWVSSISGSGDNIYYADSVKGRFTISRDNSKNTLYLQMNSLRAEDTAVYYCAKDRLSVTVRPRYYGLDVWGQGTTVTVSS VL: DIVMTQSPLSLPVTPGEPASISCRSSQGLLYSIGYNYVDWYLQKSGQSPQLLIYLGNKRASGVPDRFSGSGSGTDFTLKISRVEAEDVGFYYCMQSLQTPYTFGQGTKLEIK | 2.06 relative to dupilumab |
| Construct 5 (mAb414) (antibody, IgG4, V domains shown, VH/VL only) VH: EVQLVESGGGLEQPGGSLRLSCAGSGFTFRDFAMTWVRQAPGKGLEWVSSISGSGDNIYYADSVKGRFTISRDNSKNTLYLQMNSLRAEDTAVYYCAKDRVSITIRPRYYGLDVWGQGTTVTVSS VL: DIVMTQSPLSLPVTPGEPASISCRSSQSLLYSIGKNYVDWYLQKSGQSPQLLIYLGNKRASGVPDRFSGSGSGTDFTLKISRVEAEDVGFYYCMQSLQTPYVFGQGTKLEIK | 0.94 relative to dupilumab |
| Construct 2 (mAb411) (antibody, IgG4, V domains shown, VH/VL only) VH: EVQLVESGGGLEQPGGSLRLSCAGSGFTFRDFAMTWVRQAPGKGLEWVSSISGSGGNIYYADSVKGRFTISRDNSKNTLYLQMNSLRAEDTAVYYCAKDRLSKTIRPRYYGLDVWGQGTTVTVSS VL: DIVMTQSPLSLPVTPGEPASISCTASQSLLYSIGYNYVDWYLQKSGQSPQLLIYLGSKRASGVPDRFSGSGSGTDFTLKISRVEAEDVGFYYCMQALTTPYTFGQGTKLEIK | 0.87 relative to dupilumab |
| Construct 41 (mAb478) (antibody, IgG4, V domains shown, VH/VL only) VH: EVQLVESGGGLEQPGGSLRLSCAGSGFTFRDFAMTWVRQAPGKGLEWVSSISGGGGNTYYADSVKGRFTISRDNSKNTLYLQMNSLRAEDTAVYYCAKDRVSITIRPRYYGLDVWGQGTTVTVSS VL: DIVMTQSPLSLPVTPGEPASISCTASQSLLYSIGYNYVDWYLQKSGQSPQLLIYLGNKRASGVPDRFSGSGSGTDFTLKISRVEAEDVGFYYCMQAYNSPYTFGQGTKLEIK | 1.15 relative to dupilumab |

Let's switch to this binder now.
Fill in: Relative Inhibition of IL-13 induced TF-1 Proliferation IC50 of Construct 28 (mAb436) (antibody, IgG4, V domains shown, VH/VL only) VH: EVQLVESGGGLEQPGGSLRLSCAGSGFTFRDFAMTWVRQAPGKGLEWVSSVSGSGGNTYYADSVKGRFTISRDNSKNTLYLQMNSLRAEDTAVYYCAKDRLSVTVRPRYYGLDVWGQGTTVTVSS VL: DIVMTQSPLSLPVTPGEPASISCTSSQSLLYSIGYNYVDWYLQKSGQSPQLLIYLGNKRASGVPDRFSGSGSGTDFTLKISRVEAEDVGFYYCMQSLQTPYTFGQGTKLEIK is ___ 0.634 relative to dupilumab
